# Test system: SARS-CoV-2
# assay method text: Antiviral activity against SARS-COV2/Padova/2020 infected in African green monkey Vero E6 cells assessed as inhibition of plaque formation measured after 3 days by Plaque reduction assay
# Assay type: functional, organism-based
# condition info: Severe acute respiratory syndrome coronavirus 2, Padova/2020, Vero C1008, 72 h

compound	system	unit tag	EC50
COc1ccc2c(c1)c(CC(=O)NCCN1CCN(C(=O)CCC(=O)N[C@H](C(=O)N3C[C@H](O)C[C@H]3C(=O)N[C@@H](C)c3ccc(-c4scnc4C)cc3)C(C)(C)C)CC1)c(C)n2C(=O)c1ccc(Cl)cc1	SARS-CoV-2	µM	29.8
CCC(CC)COC(=O)[C@H](C)N[P@](=O)(OC[C@H]1O[C@@](C#N)(c2ccc3c(N)ncnn23)[C@H](O)[C@@H]1O)Oc1ccccc1 [REMDESIVIR]	SARS-CoV-2	µM	0.25
COc1ccc2c(c1)c(CC(=O)NCCCCCCC(=O)N[C@H](C(=O)N1C[C@H](O)C[C@H]1C(=O)N[C@@H](C)c1ccc(-c3scnc3C)cc1)C(C)(C)C)c(C)n2C(=O)c1ccc(Cl)cc1	SARS-CoV-2	µM	25.4

* * *

# Test system: SARS-CoV-2
# assay method text: Antiviral activity against SARS-CoV-2 infected in African green monkey Vero E6 cells assessed as reduction in virus induced cytopathic effect measured after 4 days by MTT assay
# Type: functional, organism-based
# condition info: Severe acute respiratory syndrome coronavirus 2, Vero C1008, 96 h
recorded metric: EC50

COc1ccc2c(c1)c(CC(=O)O)c(C)n2C(=O)c1ccc(Cl)cc1 > 400 µM

* * *

# System: Human coronavirus 229E
# assay method text: Antiviral activity against Human coronavirus 229E infected in human MRC5 cells assessed as inhibition of plaque formation measured after 3 days by Plaque reduction assay
# Type: functional, organism-based
# condition info: MRC5, 72 h
Property: EC50; scope: individual compounds
recorded metric: EC50 (µM)

COc1ccc2c(c1)c(CC(=O)NCCCCCCC(=O)N[C@H](C(=O)N1C[C@H](O)C[C@H]1C(=O)N[C@@H](C)c1ccc(-c3scnc3C)cc1)C(C)(C)C)c(C)n2C(=O)c1ccc(Cl)cc1 36.5
COc1ccc2c(c1)c(CC(=O)NCCN1CCN(C(=O)CCC(=O)N[C@H](C(=O)N3C[C@H](O)C[C@H]3C(=O)N[C@@H](C)c3ccc(-c4scnc4C)cc3)C(C)(C)C)CC1)c(C)n2C(=O)c1ccc(Cl)cc1 3.2

* * *

# Test system: MRC5
# assay method text: Cytotoxicity against human MRC5 cells assessed as reduction in cell viability measured after 72 hrs by MTT assay
# Type: cell-based
# condition info: mrc5, 72 h
recorded metric: CC50 (µM)

COc1ccc2c(c1)c(CC(=O)NCCN1CCN(C(=O)CCC(=O)N[C@H](C(=O)N3C[C@H](O)C[C@H]3C(=O)N[C@@H](C)c3ccc(-c4scnc4C)cc3)C(C)(C)C)CC1)c(C)n2C(=O)c1ccc(Cl)cc1 238

* * *

# assay method text: Selectivity index, ratio of CC50 for cytotoxicity against African green monkey Vero E6 cells to EC50 for antiviral activity against SARS-COV2/Padova/2020 infected in African green monkey Vero E6 cells
# Assay type: toxicity, cell-based, Vero C1008
# condition info: read-out: Ratio CC50/EC50
recorded metric: selectivity ratio

compound	experimental value
COc1ccc2c(c1)c(CC(=O)NCCOCCOCC(=O)N[C@H](C(=O)N1C[C@H](O)C[C@H]1C(=O)N[C@@H](C)c1ccc(-c3scnc3C)cc1)C(C)(C)C)c(C)n2C(=O)c1ccc(Cl)cc1	> 4
COc1ccc2c(c1)c(CC(=O)NCCCCCCC(=O)N[C@H](C(=O)N1C[C@H](O)C[C@H]1C(=O)N[C@@H](C)c1ccc(-c3scnc3C)cc1)C(C)(C)C)c(C)n2C(=O)c1ccc(Cl)cc1	> 8
COc1ccc2c(c1)c(CC(=O)NCCCCC(=O)N[C@H](C(=O)N1C[C@H](O)C[C@H]1C(=O)N[C@@H](C)c1ccc(-c3scnc3C)cc1)C(C)(C)C)c(C)n2C(=O)c1ccc(Cl)cc1	> 4
COc1ccc2c(c1)c(CC(=O)NCCN1CCN(C(=O)CCC(=O)N[C@H](C(=O)N3C[C@H](O)C[C@H]3C(=O)N[C@@H](C)c3ccc(-c4scnc4C)cc3)C(C)(C)C)CC1)c(C)n2C(=O)c1ccc(Cl)cc1	> 8
CCC(CC)COC(=O)[C@H](C)N[P@](=O)(OC[C@H]1O[C@@](C#N)(c2ccc3c(N)ncnn23)[C@H](O)[C@@H]1O)Oc1ccccc1 [REMDESIVIR]	1490
